Reference source for all entries: PubChem BioAssay

# MEASUREMENT_PROTOCOL: endothelial E-selectin expression blockers – imaging, HUVEC, immunofluorescence, MLSMR starter and 10KST1 sets, primary screen (AID 487);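 also: 100% = median nuclei count of all wells on the same plate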
# EXPERIMENTAL_SETUP: HUVEC TNFalpha-induced E-selectin immunofluorescence imaging, at 2 µM; measured here: cell number, toxicity
Quick reference: nuclei count of the listed items.
READOUT_TYPE: nuclei count (%)

> print(dat)
                                    compound  measurement
 1  CC(C)COC(=O)C(C#N)c1nc2ccccc2nc1N1CCN(Cc2ccccc2)CC1 (stereo not drawn)           87
 2        COc1ccc(-c2nc(C)c(C(C)=O)n2O)cc1OC          106
 3  CCc1cc2ccc(C)cc2nc1SCC(=O)N1CCN(C(=O)c2ccco2)CC1          119
 4       COC(=O)c1ccc(CNC(=O)COc2ccccc2Br)o1         81.7
 5             N#Cc1c(/N=C/c2ccco2)sc2c1CCC2          104
 6     O=S(=O)(c1ccc(F)cc1)N1CCC(N2CCCC2)CC1          107
 7  O=C(NCc1ccc2c(c1)OCO2)c1ccc(NS(=O)(=O)c2ccc3c(c2)OCCO3)cc1          128
 8   Cc1ccc(Cn2ncc3c(NCCCN4CCOCC4)ncnc32)cc1         98.3
 9        C=CCSc1nnc(Cc2c(C)[nH]c3ccccc23)o1          118
10    COc1cccc(CC(=O)Nn2c(C)nc3ccccc3c2=O)c1          115
11  COc1ccc(-c2nc(SC)n(S(=O)(=O)c3ccccc3)n2)cc1          109
12                 CS(=O)(=O)Nc1ccccc1C(=O)O          121
13  CCOC(=O)c1sc(NC(=O)CSc2ncn(-c3ccccc3)n2)nc1C         69.6
14                   CSc1nc2c(ccc3ccccc32)o1          102
15  CC(=O)N1CCN(S(=O)(=O)c2ccc(S(=O)(=O)NCC(C)C)cc2)CC1          110
16     Cc1ccc(C)c(N2C(=O)CN=C2Nc2ccccc2Cl)c1          113
17  Cn1c(SCc2ccccc2)nnc1C1CCCNC1 (stereo not drawn)          125
18  Cc1noc(/C=C/N(C)C)c1S(=O)(=O)N1CCCC(C(=O)NC2CCCCC2)C1 (stereo not drawn)         62.5
19  CCOc1cc(C2/C(=C(/O)c3ccc(OC(C)C)cc3)C(=O)C(=O)N2CCCOC)ccc1O (stereo not drawn)          111
20              COCC(=O)N(Cc1ccccc1)c1ccccn1          153
21  Cc1cccn2c(=O)c3cc(C#N)c(=NC(=O)c4cccnc4)n(CC4CCCO4)c3nc12 (stereo not drawn)          107
22  Cc1nn(Cc2ccccc2)c(C)c1NC(=O)c1cc(-c2ccco2)on1          101
23  Cc1ccc(CNC(=O)C2CC(=O)OC23CCCC3)c(C)c1 (stereo not drawn)          102

====

# MEASUREMENT_PROTOCOL: reduction of polyQ htt aggregates in cells – imaging, exon1htt(103Q)mCFP cells, high-content imaging, primary screen (AID 483);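 also: compound exposure lasted 3 days before fixation; percent of the per-plate median nuclei count of sample wells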
# EXPERIMENTAL_SETUP: exon1htt(103Q)mCFP cell line, aggregate imaging, at 2 µM; measured here: cell count, toxicity
Measured nuclei count, listed per entry for reference.
READOUT_TYPE: nuclei count

> print(dat)
                                    molecule  readout.type  measurement
 1   CCOC(=O)c1sc2nc(NC(=O)COc3ccccc3)sc2c1C  nuclei count         106%
 2  Cn1c(=O)c2c(nc(N3CCN(c4ccccc4)CC3)n2CCCc2ccccc2)n(C)c1=O  nuclei count        99.1%
 3           Cc1oc2c(c1C(=O)NCc1ccccc1)CCCC2  nuclei count         108%
 4       COc1ccc(CCNc2oc(-c3ccco3)nc2C#N)cc1  nuclei count         103%
 5  CCCOc1ccc(N2C(=O)CC(NCCCN3CCC(C(N)=O)CC3)C2=O)cc1 (stereo not drawn)  nuclei count         121%
 6        CN(C)c1nc(Oc2ccc(N)cc2)nc(N(C)C)n1  nuclei count        94.2%
 7  C=CCn1c(=O)[nH]c2cc(C(=O)N3CCN(c4ccc(C(C)=O)cc4)CC3)ccc2c1=O  nuclei count         101%
 8  COc1ccc(Cc2nn3c(-c4cc(OC)c(OC)c(OC)c4)nnc3s2)cc1  nuclei count        95.1%
 9  CN1CCN(C(=O)C2(NC(=O)Nc3cccc(F)c3)CCCCC2)CC1  nuclei count         105%
10  COCC(=O)N(Cc1ccc(OC)cc1)Cc1nc2ccccc2c(=O)[nH]1  nuclei count        91.9%
11    Cc1cc(C(F)F)n2ncc(C(=O)NC3CCCCCC3)c2n1  nuclei count         106%
12       CC(=O)c1cc(C#N)c(SCC(=O)OC(C)C)nc1C  nuclei count         118%
13  O=C(COC(=O)c1cc(S(=O)(=O)N2CCOCC2)cs1)c1ccccc1  nuclei count         103%
14  CCOC(=O)C1=C(Cn2cnc3ccccc32)NC(=O)NC1c1cc(C)ccc1C (stereo not drawn)  nuclei count         106%
15      CC(C)N(C(=O)COC(=O)c1ccc(O)cc1)C(C)C  nuclei count         112%
16  CN(CC(=O)N1CCCCC1)S(=O)(=O)c1cccc2cccnc12  nuclei count         112%
17  CC1(C)CC(=O)C2=C(C1)Nc1nc(SCCN3CCOCC3)[nH]c(=O)c1C2c1cccs1 (stereo not drawn)  nuclei count        50.7%
18  CCC1(C)Cc2c(sc3nc(SCC(=O)O)[nH]c(=O)c23)CO1 (stereo not drawn)  nuclei count         114%
19  CC(C)(C)C1=Nn2c(nnc2-c2n[nH]c3c2CCC3)SC1  nuclei count         100%
20  COC(=O)c1ccc(Oc2nc(NC(C)C)nc(N(C)C)n2)cc1  nuclei count        94.4%
21           Nc1ccc(S(=O)(=O)c2cccc(N)c2)cc1  nuclei count        81.5%
22  CN(C)S(=O)(=O)N1CCN(S(=O)(=O)c2ccc(F)cc2)CC1  nuclei count         103%
23                 CCSc1nnc(-c2ccc(OC)cc2)o1  nuclei count        99.1%
